# TGT: human CD33 on primary human monocyte-derived dendritic cells (human, UniProt P20138 18-364)
# Sequence (P20138 18-364): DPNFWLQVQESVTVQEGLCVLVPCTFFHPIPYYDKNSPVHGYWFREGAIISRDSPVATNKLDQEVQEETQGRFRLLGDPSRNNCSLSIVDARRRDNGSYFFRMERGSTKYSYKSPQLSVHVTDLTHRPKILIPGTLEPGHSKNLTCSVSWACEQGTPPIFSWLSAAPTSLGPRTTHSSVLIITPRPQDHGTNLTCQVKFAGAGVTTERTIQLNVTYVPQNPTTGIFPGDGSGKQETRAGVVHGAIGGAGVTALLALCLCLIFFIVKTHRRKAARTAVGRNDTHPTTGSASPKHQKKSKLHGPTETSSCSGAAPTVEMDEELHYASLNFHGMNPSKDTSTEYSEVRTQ
# ASSAY_DETAILS: cell-based or functional assay
PROPERTY_NAME: Maximal Downregulation (% CD33 remaining)

1) AB-H6 (antibody, V domains shown, Humanized variant of murine 2F5.1) VH: QVQLVQSGAEVKKPGASVKVSCKASGYTFTDYNLHWVRQAPGQGLEWMGFIYPSNGITGYAQKFQGRVTMTVDTSTSTAYMELSSLRSEDTAVYYCARSTVDYFDYWGQGTTVTVSS VL: DIQMTQSPSSLSASVGDRVTITCRASQSVSTSTYSYMHWYQQKPGKAPKLLIYYASNLESGVPSRFSGSGSGTDFTLTISSLQPEDFATYYCQHSWEIPLTFGQGTKLEIK; 20.6%
2) AB-H11 (antibody, V domains shown, Humanized variant of murine 2F5.1) VH: QVQLVQSGAEVKKPGASVKVSCKASGYTFTDYNLHWVRQAPGQSLEWIGFIYPSNGITGYSQKFQGKATLTVDTSASTAYMELSSLRSEDTAVYYCARSTVDYFDYWGQGTTVTVSS VL: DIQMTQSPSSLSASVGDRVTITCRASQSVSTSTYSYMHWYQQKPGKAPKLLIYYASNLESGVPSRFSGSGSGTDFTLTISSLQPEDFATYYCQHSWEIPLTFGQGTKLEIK; 23.3%
3) AB-H1 (antibody, V domains shown, Humanized variant of murine 2F5.1) VH: QVQLVQSGAEVKKPGASVKVSCKASGYTFTDYNLHWVRQAPGQGLEWMGFIYPSNGITGYAQKFQGRVTMTRDTSTSTVYMELSSLRSEDTAVYYCARSTVDYFDYWGQGTLVTVSS VL: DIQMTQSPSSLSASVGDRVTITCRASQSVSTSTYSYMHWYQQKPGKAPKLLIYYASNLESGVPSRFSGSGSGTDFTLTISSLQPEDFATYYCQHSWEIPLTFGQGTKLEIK; 25%
4) AB-H71 (antibody, V domains shown, Humanized variant of murine 2F5.1; also called AB-71) VH: QVQLVQSGAELKKPGASVKVSCKASGYTFTDYNLHWVRQAPGQRLEWIGFIYPSNGITGYSQKFQGKATLTVDTSASTAYMELSSLRSEDTAVYYCARSTVDYFDYWGQGTTVTVSS VL: DIVLTQSPDSLAVSLGERATINCRASQSVSTSTYSYMHWYQQKPGQPPKLLIKYASNLESGVPDRFSGSGSGTDFTLTISSLQAEDVAVYYCQHSWEIPLTFGQGTKLEIK; 25.8%
